src = patent US20230303690A1

- Tested on: T1, LAG3 Protein, Human, Recombinant (His Tag) (Sino Biological Catalog No. 16498-H08H) (human, UniProt P18627 23-450)
- T1 construct: Bought protein; also called hLAG3-His; LAG3-His; not shown: His tag
- T1 sequence (looked up): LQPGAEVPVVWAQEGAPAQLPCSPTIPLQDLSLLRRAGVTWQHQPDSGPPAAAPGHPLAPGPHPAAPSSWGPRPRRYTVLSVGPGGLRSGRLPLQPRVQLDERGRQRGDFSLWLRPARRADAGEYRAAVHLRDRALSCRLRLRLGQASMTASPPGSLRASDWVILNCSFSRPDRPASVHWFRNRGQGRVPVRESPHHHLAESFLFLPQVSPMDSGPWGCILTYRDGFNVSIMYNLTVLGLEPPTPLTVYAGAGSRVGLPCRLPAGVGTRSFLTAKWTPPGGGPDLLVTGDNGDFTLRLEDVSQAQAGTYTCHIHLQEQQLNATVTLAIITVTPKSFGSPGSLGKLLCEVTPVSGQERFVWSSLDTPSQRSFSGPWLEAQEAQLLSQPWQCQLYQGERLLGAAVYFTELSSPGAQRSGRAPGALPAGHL
- Assay overview: SPR binning on LAG3-His; competitor 20

- Binder: "sdAb No. 18 (VHH, Fc of the tested form not described; also called sdAb 18; not shown: Fc part implied by anti-human Fc capture) VHH: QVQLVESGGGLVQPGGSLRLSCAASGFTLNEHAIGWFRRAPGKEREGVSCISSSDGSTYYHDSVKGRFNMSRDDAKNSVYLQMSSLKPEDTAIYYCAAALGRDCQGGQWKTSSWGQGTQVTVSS"
  RU / RU: -13.4
- Binder: "sdAb No. 25 (VHH, Fc of the tested form not described; also called sdAb 25; sdAb #25; not shown: Fc part implied by anti-human Fc capture and anti-human IgG Fc detection) VHH: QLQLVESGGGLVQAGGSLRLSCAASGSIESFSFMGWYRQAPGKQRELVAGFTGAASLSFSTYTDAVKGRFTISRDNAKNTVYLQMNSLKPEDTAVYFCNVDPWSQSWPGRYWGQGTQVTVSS"
  RU / RU: 44.6
- Binder: "sdAb No. 1 (VHH, the tested form was captured by anti-human Fc, its Fc is not described; also called sdAb 1; not shown: Fc part implied by anti-human Fc capture) VHH: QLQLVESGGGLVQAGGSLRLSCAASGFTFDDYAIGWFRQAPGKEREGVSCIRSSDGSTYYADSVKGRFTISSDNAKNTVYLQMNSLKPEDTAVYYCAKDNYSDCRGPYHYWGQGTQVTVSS"
  RU / RU: -14.8
- Binder: "sdAb No. 20 (VHH, Fc of the tested form not described; also called sdAb 20; not shown: Fc part implied by anti-human Fc capture) VHH: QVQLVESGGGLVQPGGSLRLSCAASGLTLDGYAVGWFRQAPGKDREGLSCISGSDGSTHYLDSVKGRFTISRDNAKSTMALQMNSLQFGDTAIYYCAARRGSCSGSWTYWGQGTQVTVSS"
  RU / RU: -24.2
- Binder: "sdAb No. 24 (VHH, Fc of the tested form not described; also called sdAb 24; not shown: Fc part implied by anti-human Fc capture) VHH: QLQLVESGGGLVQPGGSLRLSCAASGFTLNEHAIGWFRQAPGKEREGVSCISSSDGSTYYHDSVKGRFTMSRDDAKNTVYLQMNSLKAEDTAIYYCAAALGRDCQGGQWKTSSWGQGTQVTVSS"
  RU / RU: -12.9
